# System: Snail
# run.description: EMT inhibitory effect by inhibition of Snail expression (immunoblotting) in MCF7 cells
# Type: cell-based, human
# measurement.setup: 10 μM, MCF7, 48 hours, untreated control = 100%
Where a name gives a salt, the structure may show the parent alone.
# Snail Expression Rate (%) >= 10% gives Fulfilled, anything below gives Not fulfilled

Task: Is Snail Expression Rate (%) at least 10%? Consider Cl.N=C(NC(=N)N1CCCC1)Nc1ccc(C(F)(F)F)cc1
Result: Fulfilled

Task: Decide: is the reported value of Snail Expression Rate (%) for [H]/N=C(/N)N/C(=N/[H])NCCc1ccccc1 [Phenformin hydrochloride, reference compound] equal to or greater than 10%?
Result: Fulfilled

Task: Hi team, for Cl.N=C(NC(=N)N1CCCCCC1)Nc1cccc(Cl)c1 , is the recorded Snail Expression Rate (%) at or above 10%?
Result: Fulfilled

Task: Can Cl.N=C(NC(=N)N1CCCCC1)Nc1cccc(Cl)c1 be said to have Snail Expression Rate (%) at or above 10%?
Result: Not fulfilled

Task: Hi team, for Cl.N=C(NC(=N)N1CCCCC1)Nc1ccc(C(F)(F)F)cc1 , is the recorded Snail Expression Rate (%) at or above 10%?
Result: Fulfilled

---

Provide the recorded melting point for the entries that follow.
Where a name gives a salt, the structure may show the parent alone.

Task: Can you look up the measured melting point of N=C(NC(=N)N1CCCCC1)Nc1ccc(C(F)(F)F)c(F)c1 (as salt: acetate) [Example 75] for me?
Result: 206 to 208 °C

Task: Can you look up the measured melting point of Cl.N=C(NC(=N)N1CCCCC1)Nc1ccc(F)cc1F [Example 58] for me?
Result: 256 to 257 °C

Task: Tell me the measured melting point of Cl.N=C(NC(=N)N1CCCC1)Nc1ccc(Cl)c(Cl)c1 [Example 63] , please.
Result: 282 to 283 °C

Task: What value of measured melting point is listed for Cl.N=C(NC(=N)N1CCCCC1)Nc1ccc(C(F)(F)F)cc1 [Example 27] ?
Result: 273 to 274 °C

Task: Endpoint output: melting point of Cl.N=C(NC(=N)N1CCCCC1)Nc1ccc(Cl)cc1Cl [Example 62] . Value?
Result: 262 to 263 °C

Task: Which melting point is listed for Cl.N=C(NC(=N)N1CCCCC1)Nc1ccc(Cl)c(C(F)(F)F)c1 [Example 47] ?
Result: 269 to 270 °C

Task: // lookup melting point for Cl.N=C(NC(=N)N1CCC1)Nc1ccc(OC(F)(F)F)c(F)c1 [Example 52]
Result: 260 to 261 °C

Task: Field request: melting point | item: Cl.N=C(NC(=N)N1CCCCC1)Nc1cc(Cl)cc(OC(F)(F)F)c1 [Example 65]
Result: 208 to 209 °C

Task: What does the data say about its melting point? Entry: Cl.N=C(NC(=N)N1CCCCC1)Nc1cc(Cl)cc(Cl)c1 [Example 61]
Result: 230 to 231 °C

Task: Entry Cl.N=C(NC(=N)N1CCCCC1)Nc1ccc(OC(F)(F)F)c(F)c1 [Example 54] has what melting point?
Result: 262 to 263 °C

Task: Given Cl.N=C(NC(=N)N1CCCCC1)Nc1cc(F)c(F)c(F)c1 [Example 68] , state its recorded melting point.
Result: 248 to 249 °C

Task: Consider the compound N=C(NC(=N)N1CCCCC1)Nc1ccc(OC(F)(F)F)c(F)c1 (as salt: acetate) [Example 77] and give its measured melting point.
Result: 202 to 204 °C

Task: Item CN(C)c1ccc(NC(=N)NC(=N)N2CCCCC2)cc1.Cl [Example 37] has what recorded melting point?
Result: 253 to 255 °C

Task: Value lookup for melting point; key = CN1CCN(C(=N)NC(=N)Nc2ccc(OC(F)(F)F)cc2)CC1.Cl [Example 35]
Result: 258 to 259 °C

Task: Form field: reported melting point of CS(=O)(=O)Nc1cccc(NC(=N)NC(=N)N2CCCCC2)c1.Cl [Example 41]
Result: 251 to 253 °C

Task: Tell me the measured melting point of Cl.N=C(NC(=N)N1CCCCC1)Nc1c(F)cc(F)cc1F [Example 69] , please.
Result: 243 to 244 °C

Task: What melting point value was documented for this compound, Cl.N=C(NC(=N)N1CCCCC1)Nc1cccc(OC(F)(F)F)c1 [Example 29] ?
Result: 264 to 266 °C

Task: Quick one: melting point for Cl.N=C(NC(=N)N1CCCCC1)Nc1cccc(N)c1 [Example 36] ?
Result: 220 to 222 °C

Task: Give its melting point value. Item: Cl.N=C(NC(=N)N1CCCCC1)Nc1ccccc1 [Example 8]
Result: 204 to 206 °C

Task: Using the record for Cl.N=C(NC(=N)N1CCCC1)Nc1ccc(C(F)(F)F)c(F)c1 [Example 48] , report its melting point.
Result: 253 to 254 °C

Task: Reported melting point for Cl.N=C(NC(=N)N1CCCC1)Nc1cccc(Cl)c1 [Example 19] : what is it?
Result: 170 to 172 °C

Task: Value lookup for melting point; key = Cl.N=C(NC(=N)N1CCCCC1)Nc1ccc(C(F)(F)F)c(F)c1 [Example 49]
Result: 263 to 264 °C

Task: Please look up its melting point: Cl.N=C(NC(=N)N1CCCCC1)Nc1ccc(-c2nnn[nH]2)cc1 [Example 40]
Result: 241 to 242 °C

Task: State the recorded melting point for this entry: Cl.N=C(NC(=N)N1CCCC1)Nc1cccc(OC(F)(F)F)c1 [Example 28]
Result: 261 to 262 °C

Task: Consider the compound shown here: CCc1cccc(NC(=N)NC(=N)N2CCCCC2)c1.Cl [Example 10] What is its recorded melting point?
Result: 225 to 227 °C

Task: Item Cl.N=C(NC(=N)N1CCCCC1)Nc1cccc(C(F)(F)F)c1 [Example 24] has what recorded melting point?
Result: 264 to 265 °C

Task: # get_value(readout='melting point', item= COc1cccc(NC(=N)NC(=N)N2CCCCC2)c1.Cl [Example 13] )
Result: 230 to 232 °C

Task: Bench note: what melting point did Cl.N=C(NC(=N)N1CCCCC1)Nc1cccc(Br)c1 [Example 7] show?
Result: 263 to 264 °C

Task: What value of melting point has been reported for the following compound? N=C(NC(=N)N1CCCCC1)Nc1ccc(C(F)(F)F)cc1 (as salt: acetate) [Example 71]
Result: 198 to 200 °C

Task: I have this compound here, CC(=O)Nc1cccc(NC(=N)NC(=N)N2CCCCC2)c1.Cl [Example 39] , and I need its recorded melting point.
Result: 265 to 267 °C

Task: Quick one: melting point of Cl.N=C(NC(=N)N1CCCCC1)Nc1ccc(OC(F)(F)F)cc1 [Example 33] ?
Result: 277.3 °C

Task: If you can, please state the reported melting point value of Cl.N=C(NC(=N)N1CCCC1)Nc1cccc(C(F)(F)F)c1 [Example 23] .
Result: 286 to 287 °C

Task: Entry under review: Cl.N=C(NC(=N)N1CCCCC1)Nc1ccc(Cl)c(Cl)c1 [Example 64] . Reported melting point?
Result: 267 to 269 °C

Task: What measured melting point goes with Cl.N=C(NC(=N)N1CCCCC1)Nc1cc(Br)cc(OC(F)(F)F)c1 [Example 67] ?
Result: 205 to 207 °C

Task: Query (compound): Cc1cccc(NC(=N)NC(=N)N2CCCCC2)c1.Cl [Example 9] ; field requested: melting point
Result: 239 to 240 °C

Task: Consider the compound shown here: Cl.N=C(NC(=N)N1CCCCC1)Nc1cccc(F)c1 [Example 16] What is its recorded melting point?
Result: 201 to 202 °C

Task: Entry Cl.N=C(NC(=N)N1CCCCC1)Nc1ccc(Cl)cc1 [Example 18] has what melting point?
Result: 275 to 276 °C

Task: Need melting point of Cl.N=C(NC(=N)N1CCCCC1)Nc1ccc(F)c(F)c1 [Example 59] , thanks.
Result: 257 to 258 °C

Task: Which melting point is reported for this compound? Cl.N=C(NC(=N)N1CCOCC1)Nc1cccc(Br)c1 [Example 22]
Result: 264 to 265 °C

---

Exercise: state measured AMPK activation effect at 50 μM (%) for each of the molecules provided.
# Tested on: AMPKα
# run.description: Measurement of AMPK activation effect (AMPKα Thr172 phosphorylation immunoassay) in MCF7 cells
# Type: cell-based, human
# measurement.setup: 50 μM, 24 hours, relative to untreated cells
Return type: number; implicit unit %.

Task: I have this molecule here, Cl.N=C(NC(=N)N1CCCC1)Nc1cccc(C(F)(F)F)c1 , and I need its recorded AMPK activation effect at 50 μM (%).
Result: 578

Task: Query (molecule): Cl.N=C(NC(=N)N1CCCCC1)Nc1cccc(OC(F)F)c1 ; field requested: AMPK activation effect at 50 μM (%)
Result: 636

Task: I'd like to know its AMPK activation effect at 50 μM (%). The molecule in question is N=C(NC(=N)N1CCCCC1)Nc1ccc(OC(F)(F)F)cc1
Result: 747

Task: What value of measured AMPK activation effect at 50 μM (%) is listed for Cl.N=C(NC(=N)N1CCCCC1)Nc1ccc(S(=O)(=O)O)cc1 ?
Result: 97

Task: Which AMPK activation effect at 50 μM (%) value belongs to CS(=O)(=O)Nc1cccc(NC(=N)NC(=N)N2CCCCC2)c1.Cl ?
Result: 125

Task: I'd like to know its AMPK activation effect at 50 μM (%). The molecule in question is Cl.N=C(NC(=N)N1CCCCC1)Nc1cccc(F)c1
Result: 378

Task: Quick one: AMPK activation effect at 50 μM (%) of Cl.N=C(NC(=N)N1CCCCC1)Nc1ccc(F)c(F)c1 ?
Result: 1036

Task: Consider the molecule Cl.N=C(NC(=N)N1CCCCC1)Nc1ccccc1 and give its measured AMPK activation effect at 50 μM (%).
Result: 347

Task: Which measured AMPK activation effect at 50 μM (%) value corresponds to Cl.N=C(NC(=N)N1CCCCC1)Nc1ccc(F)cc1F ?
Result: 265

Task: Reported AMPK activation effect at 50 μM (%), molecule Cl.N=C(NC(=N)N1CCCCC1)Nc1cccc(CO)c1 : ____
Result: 149
